- Tested on: MS2 coat protein
- test description: apparent KD of MS2 coat protein; higher = weaker reporter binding
- conditions: Eterna round: R107; input ligand: none
Entries annotated with measured apparent KD of MS2 coat protein
Enter your answer as a number in nM; do not include the unit.

# example entries with known answers
INSERT INTO results (sequence_entry, uom, assay_result) VALUES
  ('UAAUAAGUACCGGUCCUCAGAUCCUCAUGACGAGGACCGGUACGGCCGCCACUCGAAACAUGAGGAUCACCCAUGUAAUAAUAAU [|T''-M''-Trp-Ms2|_Design 1]', 'nM', 22.2),
  ('AACAUGAGGAUCACCCAUGUCUGAACUGAAGGAGCGCUAAAUAAGGCAGGUAGGUCGCGGAAUUUUGUAUAUAUAUAUAUAUGGG [9.F]', 'nM', 27.7),
  ('GCGUUCUCUGCGGCCGCCACUCAAGGAGCUACAUAGCUCCUAGACAUGAGGAUCACCCAUGUCGCGAGGACCGGGUAGAUCCUUA [Same State Typptophan B GF8]', 'nM', 159);

(Q) Find apparent KD of MS2 coat protein (MS2 coat protein) for the entry GGUCACCUAUCCUCAUUGGUGACCCUGGAAGGAGCGAGCGAGAGCUCAGGUAGGUCGCCAGAACAUGAGGAUCACCCAUGUAAUA [(A)''-(M)'-(A)'(Arg1)-(Arg2)-(M1)-(M2)_Design12]
(A) 94.9

(Q) Could you do the same for GGUACAUGAGGAUCACCCAUGUGUCAUGAUACCAGACAUGAAAAUGUCCCUUGGCAGCAUGCCUGAUGGCCGCGUUUAGCGGCCG [Liskovec] , please?
(A) 15.7

(Q) Same question for UGUCGAAACUGAAGGAGCGAGAUGACAAACAUGAGGAUCACCCAUGUUAUGGGUUGUUAAUCUCAGGUAGGUCGCAGUGACAAAA [Same State Arginine B GF 16] please.
(A) 106

====

- Test system: MS2 coat protein
- test description: apparent KD of MS2 coat protein; designed switch direction (-1 OFF switch, 1 ON switch): 1; higher = weaker reporter binding
- conditions: input ligand: microRNA oligo, concentration not stated
Would you please tag the item met when its apparent KD of MS2 coat protein is 60 nM or above, and not met when it is below?

(Q) Check the entry AGACACAUGAGGAUCACCCAUGUUACGAGCUUAGCUCGGACACAGGAUAUCCGGUCCUAGAGACCGGAGAAGGGUGGCUGAAAA [Zara MOD2] (Eterna round: R96, puzzle: Same State NG 3) : does apparent KD of MS2 coat protein equal or exceed 60 nM?
(A) met

====

- System: K4 kissing-loop RNA reporter;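 further: bound reporter read as fluorescence of individual clusters on recovered sequencing chips by microscopy, with normalized cluster intensities fitted with a binding model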
- test description: apparent KD of K4 kissing-loop reporter; higher = weaker reporter binding
- conditions: Eterna round: R107; input ligand: FMN 200 uM
Rule: t for apparent KD of K4 kissing-loop reporter not less than 0.3 µM, f for anything less.

Completed entries (count: 5):
INSERT INTO results (sequence_entry, category) VALUES
  ('CCCGUGGGUUCGAGAGGGCUUGUGGGAAGUAAGGAUAUUUAGGGAGAAAGAAGGUACUAUAGAAUAUAGUGAUGUUAUAUAUGGG [#07 K4 FMN A Same State]', 't'),
  ('GUAUCGCUAGGAGGAUAUUUCAAUCUGACUCUUUGAGUUAGUACGGAGUGAUGUUCCGAUUUACGGAAAGAAGGCCUAGUGAUAC [FMN B 11]', 'f'),
  ('UUUCGGCCCAGUGAUGUUGGGUGGAGGCGGCGAGGACCGGUACGGCCGCCACUCGGCGCACUGGCGGAGUGAUGUUUCGUGUAUA [Same State Tryptophan A GF 14]', 't'),
  ('AGGUCCGAGCCCGUAAGGGCUCGGACCUGUUAGGAUAUGACGUUAUUCAGAAGGGAUGGGUGGAGUGAUGUUCCACCCGCAAGGG [#2 Same State - FMN A Attempt #10 (HarryS)]', 'f'),
  ('GUUACGCAUGGAAGGAGCGCUCUCCGGUUUAUUAACACAGUGAUGUUGUGAUUUUACCGAAAGCAGGUAGGUCGCCAUGUGUAAC [Ex Arginine B K4 12]', 't');

Now examine the next entry.
(Q) Does CUAAUCGCUCAUGAUACCAGCUAGUGAUGUUAGCCCGUCAAGCUGAGGGUUCAUCCACCCAGCCCUUGGCAGCAUUCUCGGUCAG [theeternabot_exclusion_KL_Theo_B_8] have a reported apparent KD of K4 kissing-loop reporter of at least 0.3 µM?
(A) t

====

- Tested on: MS2 coat protein
- test description: apparent KD of MS2 coat protein; designed switch direction (-1 OFF switch, 1 ON switch): -1; higher = weaker reporter binding
- conditions: input ligand: FMN 200 uM
observed property: apparent KD of MS2 coat protein (µM)
The response must be a number in µM with no trailing unit.

Use these answered entries as a reference point.
INSERT INTO results (sequence_entry, assay_result) VALUES
  ('ACUCUUCUUGUUAGGAUAUGCAUCGGGCUUCCGCAGCAGAAGGAACAUGAGGAUCACCCAUGUCAAAUAAAAUC (Eterna round: R97, puzzle: Brourd''s mod of Exclusion 4)', 0.141),
  ('AUCGUGCAGCUUUGCUGUACGAGUACAUGAGGAUCACCCAUGUAGGAUAUGGUACGCUUUGCGUGCUAGAAGGAUAUGUGUUUG [EX ENG3 1.44] (Eterna round: R96, puzzle: Exclusion NG 3)', 0.0586),
  ('UUACCUAGUGUUAGGAUAUGCGACGGGUGACCGUUGCAGAAGGAACAUGAGGAUCACCCAUGUUUAAUAAAAUC [JL-BMX4-4.45 ViennaUCT mod] (Eterna round: R97, puzzle: Brourd''s mod of Exclusion 4)', 0.0531),
  ('AUGAGGUUAGGAUAUACAUGAGGAUCACCCAUGUUGAAGGGUUAGGUAGGCGGAGCUGGUAGAAGGAACGGAGC [JR_Exclu3_Sub057] (Eterna round: R96, puzzle: Exclusion 3)', 0.0443);

Proceeding to the next sequence to report its apparent KD of MS2 coat protein.
(Q) If you can, please state the reported apparent KD of MS2 coat protein value of CUGCUGGAGCGGCGCUUUGGUCGUACAUGAGGAUCACCCAUGUAGGAUAUGGUAAAAUUCGCCUGCUAGAAGGAUAGAGUGGUC [salish99_ExNG3_r04_617] (Eterna round: R96, puzzle: Exclusion NG 3) .
(A) 0.135

====

- Test system: MS2 coat protein
- test description: apparent KD of MS2 coat protein; designed switch direction (-1 OFF switch, 1 ON switch): 1; higher = weaker reporter binding
- conditions: input ligand: FMN 200 uM
observed property: apparent KD of MS2 coat protein (µM)
Write the value in µM as a bare number.

INSERT INTO assay_data (sequence_entry, observed_property, uom, assay_result) VALUES
  ('GUUACAUGAGGAUCACCCAUGUAUGUGUGGGAGUAAGUGUCUUAGGAUAUCUAGUAUUAAAUUUAAGAGAAGGAAGAUUGUUGU [JMF''s solution 57] (Eterna round: R96, puzzle: Same State NG 3)', 'apparent KD of MS2 coat protein', 'µM', 0.14),
  ('CAAGAAAACGCAGGAUAUACCCGGGCUACCCGGGUAGAAGGGUGACACAUGAGGAUCACCCAUGUACAUAGAAUUAGCUAUGGA [Soberaa] (Eterna round: R96, puzzle: Same State NG 1)', 'apparent KD of MS2 coat protein', 'µM', 0.284),
  ('UUAGUCAUGUAAGGAUAUGCAGCCGAAACGGCUGCAGAAGGUACUAUAAUUACAUGAGGAUCACCCAUGUUAUAAAAUUUAUAU [Mat - Same State NG 1 - JL mod - D62] (Eterna round: R96, puzzle: Same State NG 1)', 'apparent KD of MS2 coat protein', 'µM', 0.0234),
  ('GCCGUAAACAUGAGGAUCACCCAUGUAAACGCGAGAGUGGAUGAGGAUAUCGAUGGGUUUCCCGUCGAGAAGGCGUGGGUCGGC [JL SSNG3 3.99] (Eterna round: R96, puzzle: Same State NG 3)', 'apparent KD of MS2 coat protein', 'µM', 0.0362),
  ('AGAUCAUGACGAGGAUAUGGUACAUGAGGAUCACCCAUGUAUGUACUAUAAUCCGAAUGAGGAAUCCAGAAGGCGUCGUGGUCA [JL SSNG2 1.14] (Eterna round: R96, puzzle: Same State NG 2)', 'apparent KD of MS2 coat protein', 'µM', 0.0449),
  ('UGGCUCAGACGAGGAUAUAUGUGGUCACAUGAGGAUCACCCAUGUCUCGAGCUUCGGCUCGAGGCAUAGAAGGCGUCUGAGCCU [SSNG2/5-A3] (Eterna round: R96, puzzle: Same State NG 2)', 'apparent KD of MS2 coat protein', 'µM', 0.2);

(Q) Fill in the blank: the reported apparent KD of MS2 coat protein of UGGCUCAGAGCAGGAUAUAUGUGAUCACAUGAGGAUCACCCAUGUCUCGAGCUUCGGCUCGAGACAUAGAAGGGCUCUGAGCCA [SSNG2/3-B2] (Eterna round: R96, puzzle: Same State NG 2) is ____.
(A) 0.0233

(Q) Request: UUAAUAAAUCAAGGAUAUCACGUCGUUUAGACGUGAGAAGGUGAUCAUAACAUGAGGAUCACCCAUGUAUUACAUGAAUAUUAA [SSNG1/1-B3] (Eterna round: R96, puzzle: Same State NG 1)
(A) 1.18

(Q) Moving on to the next sequence: AAGAAAUCCGCAGGAUAUCCUAAGCCGGGCUUAGGAGAAGGGUGGCCACAUGAGGAUCACCCAUGUAAAAGCUGAAUCACAGCC [Aerququ] (Eterna round: R96, puzzle: Same State NG 1)
(A) 0.237
